B1: tRNA (parent)
chain: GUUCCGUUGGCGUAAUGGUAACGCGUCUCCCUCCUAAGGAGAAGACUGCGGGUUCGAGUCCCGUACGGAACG

Variants of: B1
Assay: yeast fitness relative to wild type (ratio to wild type); higher = fitter; tRNA-Arg(CCU), competitive growth, 37 C, YPD
This sample holds only a part of the variants without activity.
Exercise: for every item that follows, state its recorded yeast fitness.
// keep it numeric: no unit symbol after the value

Lookup: Entry under review: U3C C5U . Reported yeast fitness?
Found: 0.836

Lookup: What measured yeast fitness goes with U7A C24U U47C ?
Found: 0.566

Lookup: Request the reported yeast fitness associated with G9C G17C C27G U35A C49A A69U
Found: 0.536

Lookup: yeast fitness for C5U U13C U19A A21U C24A U54C U59C A69G ?
Found: 0.524

Lookup: Looking for the measured yeast fitness of U2G A42C U47A G63C A69C , can you help?
Found: 0.558

Lookup: May I ask what yeast fitness has been recorded for A21G C33U C49A ?
Found: 0.502

Lookup: Please report the recorded yeast fitness for C30G A43C .
Found: 0.549

Lookup: What value of yeast fitness has been recorded for this entry: A15U G18C
Found: 0.589

Lookup: I am curious: what yeast fitness value has been reported for A36U A45U U53A ?
Found: 0.554

Lookup: // lookup yeast fitness for G9A C29G G63A
Found: 0.525

Lookup: What value of yeast fitness has been recorded for this entry: C24U C31A G56C
Found: 0.544

Lookup: Dear colleague, I am looking for the recorded yeast fitness of the following variant: U2A G25A G68A
Found: 0.64

Lookup: I would be grateful if you could share the reported yeast fitness for A15G G25A A37G A70C .
Found: 0.522

Lookup: What yeast fitness value was documented for this variant, U7G C27U ?
Found: 0.792

Lookup: Requested read-out: yeast fitness. Entry: C11A C22G
Found: 0.623

Lookup: Which yeast fitness is listed for G50A G68A ?
Found: 0.915

Lookup: May I ask what yeast fitness has been recorded for U35C C49U ?
Found: 0.755

Lookup: Any idea what yeast fitness was measured for C34G C60G ?
Found: 0.782

Lookup: Return reported yeast fitness; argument: A21G C29U A36U A43U C62A
Found: 0.559

Lookup: Could you tell me which yeast fitness is on file for G6A G44A G56A ?
Found: 0.649

Lookup: // lookup yeast fitness for G56C G58C
Found: 0.563

Lookup: Please report the recorded yeast fitness for C31U G39C .
Found: 0.901

Lookup: Look at this variant and give its reported yeast fitness. G18C U26G
Found: 0.644

Lookup: Could you tell me which yeast fitness is on file for C34U C55U ?
Found: 0.569

Lookup: What does the data say about its yeast fitness? Entry: C5U A45C C61G
Found: 0.536

Lookup: I have this variant here, U7A U32C , and I need its recorded yeast fitness.
Found: 0.764

Lookup: Look up yeast fitness for this variant: G10C C49G U53G
Found: 0.551

Lookup: # get_value(readout='yeast fitness', item= C22A U35G )
Found: 0.631

Lookup: Name the reported yeast fitness value associated with the variant G39C G51C
Found: 0.568

Lookup: // lookup yeast fitness for U16A C22G G48A
Found: 0.994

Lookup: Any idea what yeast fitness was measured for G10C C22G C33A ?
Found: 0.581

Lookup: What value of yeast fitness has been recorded for this entry: U19C C24U C30A
Found: 0.631

Lookup: yeast fitness for U2G G39C ?
Found: 0.715

Lookup: Endpoint output: yeast fitness of U8A U13A . Value?
Found: 0.606

Lookup: Query: yeast fitness; subject: G38A U54C A65U
Found: 0.581

Lookup: GET /values?readout=yeast fitness&item= G12A G63A
Found: 0.897

Lookup: Requested read-out: yeast fitness. Entry: A21G G39A U54C
Found: 0.589

Lookup: Endpoint output: yeast fitness of A57U A69G . Value?
Found: 0.665

Lookup: For the variant shown here, C31G A45G , give the reported yeast fitness.
Found: 0.809

Lookup: So what does the record say about yeast fitness for A40U A42C G44A G51A A65G ?
Found: 0.542

Lookup: What measured yeast fitness goes with G9C G38A ?
Found: 0.624

Lookup: Any idea what its yeast fitness is? The variant is C31G A43G C49U G68A
Found: 0.558

Lookup: Bench note: what yeast fitness did U54C C66U show?
Found: 0.767

Lookup: Form field: reported yeast fitness of U19A G23C C30G U47A
Found: 0.594

Lookup: Please report the recorded yeast fitness for A21C C30G .
Found: 0.6

Attribution: the RNAGym collection of RNA variant scans (doi:10.1126/science.aae0568)
